Sourced from PubChem BioAssay (EPA / NIEHS)

ASSAY_SUMMARY: APR_HepG2_P-H2AX_1hr: Apredica 1-hour HepG2 Assay for H2AX Phosphorylation (AID 2282673)
DETAILS: high-content imaging, actives raise or lower the signal
Activity calls are given as the source filed them. Rule for the calls: active = hit-call score of the fitted dose curve at least 0.9, where 1 is the maximum; inactive = score below 0.9.
QUANTITY_MEASURED: outcome

COMPOUND: COP(=O)(NC(C)=O)SC (stereo not drawn)
MEASUREMENT: inactive

COMPOUND: Cc1nn(-c2cc(NS(C)(=O)=O)c(Cl)cc2Cl)c(=O)n1C(F)F
MEASUREMENT: inactive

COMPOUND: CCCOc1nn(C(=O)NS(=O)(=O)c2ccccc2C(=O)OC)c(=O)n1C
MEASUREMENT: inactive

COMPOUND: CSc1nnc(C(C)(C)C)c(=O)n1N
MEASUREMENT: inactive

COMPOUND: CC(Oc1cccc(Cl)c1)C(=O)O (stereo not drawn)
MEASUREMENT: inactive

Look up outcome for this compound: CCOP(=S)(OCC)SCCSCC
inactive

Look up outcome for this compound: C#CCC1=C(C)C(OC(=O)C2C(C=C(C)C)C2(C)C)CC1=O (stereo not drawn)
inactive

Look up outcome for this compound: CCOP(=S)(OCC)OC(Cl)C(Cl)(Cl)Cl (stereo not drawn)
inactive

Look up outcome for this compound: COc1cccc(C(=O)NN(C(=O)c2cc(C)cc(C)c2)C(C)(C)C)c1C
inactive

Look up outcome for this compound: CC(C)N(C(=O)SCC(Cl)=C(Cl)Cl)C(C)C
inactive

Look up outcome for this compound: N#CSCSC#N
inactive

Look up outcome for this compound: CCOP(=O)(OCC)Oc1cc(C)nc(C(C)C)n1
inactive

Look up outcome for this compound: CNC(=O)ON=C(SC)C(=O)N(C)C
inactive

###

Read-out: Cytochrome P450 3A4 (Homo sapiens) (UniProt P08684)
Sequence (P08684 whole entry, looked up): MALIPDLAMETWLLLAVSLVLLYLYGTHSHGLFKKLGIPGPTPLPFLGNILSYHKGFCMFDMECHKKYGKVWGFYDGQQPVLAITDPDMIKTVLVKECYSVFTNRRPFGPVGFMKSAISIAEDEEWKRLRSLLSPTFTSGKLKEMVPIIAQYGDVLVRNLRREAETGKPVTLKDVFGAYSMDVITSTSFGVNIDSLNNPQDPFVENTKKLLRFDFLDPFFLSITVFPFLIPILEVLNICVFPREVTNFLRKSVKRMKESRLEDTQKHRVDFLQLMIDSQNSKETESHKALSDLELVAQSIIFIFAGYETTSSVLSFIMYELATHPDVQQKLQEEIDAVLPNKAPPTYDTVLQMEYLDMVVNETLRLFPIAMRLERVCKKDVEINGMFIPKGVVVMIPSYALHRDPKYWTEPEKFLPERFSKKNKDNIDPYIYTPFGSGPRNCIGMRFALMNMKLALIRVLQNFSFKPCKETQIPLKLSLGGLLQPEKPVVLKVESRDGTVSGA
ASSAY_SUMMARY: CLD_CYP3A4_48hr: CellzDirect (CLD) Gene Expression Assay for xenobiotic metabolism (CYP3A4) at 48 hours (AID 2283698)
Records with an inconclusive call do not appear. Active and inactive are the calls of the source. How the source made its calls: active means hit-call score of the fitted dose curve at least 0.9, where 1 is the maximum; inconclusive means response in the unintended direction; inactive means score below 0.9.
Valid outcomes are listed here; reply with one: active, inactive

Past entries and their recorded results:
MOLECULE: CSC1=N[C@@](C)(c2ccccc2)C(=O)N1Nc1ccccc1
CATEGORY: inactive
//
MOLECULE: CC1=NNC(=O)N(/N=C/c2cccnc2)C1
CATEGORY: inactive
//
MOLECULE: CCCOc1nn(C(=O)NS(=O)(=O)c2ccccc2C(=O)OC)c(=O)n1C
CATEGORY: active

What classification did CCCCSP(=O)(SCCCC)SCCCC end up with in this test?
active

What classification did CCOP(=S)(OCC)SCCSCC end up with in this test?
active

What classification did CNc1cnn(-c2cccc(C(F)(F)F)c2)c(=O)c1Cl end up with in this test?
active

What classification did CCOP(=O)(SC(C)CC)N1CCSC1=O (stereo not drawn) end up with in this test?
active

What classification did COc1cc(OC)nc(Sc2cccc(Cl)c2C(=O)O)n1 end up with in this test?
active

###

ASSAY_SUMMARY: CCTE_Padilla_ZF_144hpf_TERATOSCORE: (Legacy) CCTE's 144 Hour Post-fertilization zebrafish Assay Teratoscore, Padilla Lab (AID 2283679)
Activity calls are given as the source filed them. Rule for the calls: active = hit-call score of the fitted dose curve at least 0.9, where 1 is the maximum; inactive = score below 0.9.
Valid outcomes are listed here; reply with one: True (active), False (inactive)

Past entries and their recorded results:
COMPOUND: CSc1nc(NC(C)C)nc(NC(C)C)n1
CATEGORY: True
//
COMPOUND: C=C(C)[C@H]1Cc2c(ccc3c2O[C@@H]2COc4cc(OC)c(OC)cc4[C@@H]2C3=O)O1
CATEGORY: True
//
COMPOUND: CC(C)N(C(=O)SCC(Cl)=C(Cl)Cl)C(C)C
CATEGORY: True
//
COMPOUND: COP(=O)(OC)SCn1c(=O)oc2cc(Cl)cnc21
CATEGORY: True
//
COMPOUND: Cc1ccn2nc(S(=O)(=O)Nc3c(F)cccc3F)nc2n1
CATEGORY: False
//
COMPOUND: COc1cc(OC)nc(Sc2cccc(Cl)c2C(=O)O)n1
CATEGORY: False
//
COMPOUND: C[Si](Cn1cncn1)(c1ccc(F)cc1)c1ccc(F)cc1
CATEGORY: True
//
COMPOUND: CC1(C(=O)Nc2ccc(O)c(Cl)c2Cl)CCCCC1
CATEGORY: True

What classification did CCCOc1nn(C(=O)NS(=O)(=O)c2ccccc2C(=O)OC)c(=O)n1C end up with in this test?
False

What classification did CCC(CC)Nc1c([N+](=O)[O-])cc(C)c(C)c1[N+](=O)[O-] end up with in this test?
True

What classification did N#CSCSC#N end up with in this test?
True

What classification did Nc1c(Cl)cc([N+](=O)[O-])cc1Cl end up with in this test?
True

What classification did CCOP(=S)(OCC)SCCSCC end up with in this test?
False

What classification did CON=C(C(=O)OC)c1ccccc1CON=C(C)c1cccc(C(F)(F)F)c1 end up with in this test?
True

What classification did CCCOCC(=Nc1ccc(Cl)cc1C(F)(F)F)n1ccnc1 end up with in this test?
True

What classification did COP(=O)(OC)OC(Br)C(Cl)(Cl)Br (stereo not drawn) end up with in this test?
True
